# test.summary: yeast display, Sf9 membrane polyspecificity reagent, FACS + sequencing; frameworks hold sequencing errors
readout.label: polyreactivity (PSR sort gate)

* QVQLVESGVGLVQAGGSLRLSCAASGSISQGNAMGWYRQAPGKERELVAANRWTSGRTYYADSVKGRFTISRDIAKNTVYLQMNSLKPEDTAEYYCAAYYVYYTPTLFDRVYWGQGSQVTVSS | low polyreactivity
* QVQLEESGAGLVQAGGSLRLCCAASGFTIGYNVMGWYRQAPGKERELVATISWNGARTYYADSVKGRFTISRDNAKNTVYLQMNSLKPEDTAVYYCAARRYYRGEYDYWGQGTKVTVSS | low polyreactivity
* QVQLVESCGGLVQAGGSLRLSCAASGSTFSYNAMGWYRQAPGKEREMVAAITYGGGSTYYADSVKGRFTISRDNAKNTVYLQMNSLKPEDTAVYYCAVEKYGRYRPYSYGYWGQGTQVTVSS | high polyreactivity
* QVQLQEIGGCLVQAGDSHRLSCAASGNIFPFTDMGWNRQAQGKERELVAAINAGSTTYYADSVKGRFTISRDNAKITVYLQLISLKPEDTAVYYCAVYYLGSGTFCYWGQGPQVTVSS | high polyreactivity
* QVQLVESGGGLVQAGGSLRLSCAASGSTFASNAMGWYRQAPGKERELVAAITSRDASTYYADSVKGRFTISRDNAKNTVYLQMNSLKPEDTAVYYCATDGYSPAAFDYWGQGTQVTVSS | low polyreactivity

###

# test.summary: yeast display, Sf9 membrane polyspecificity reagent, FACS + sequencing; frameworks hold sequencing errors
readout.label: polyreactivity (PSR sort gate)

- QVQLVETGGGLVQAGGSLRLSCAASGSTFYNYAMGWYRQAPGKEREFVAAISWGGGSTRYADSVKGRFTISRDYAKNTVYLQMNSLKPEDTAVYYCAARYPHYDYYYWGQGTQVTVSS: high polyreactivity
- QVQLVESGGGLVQAGGSLRLSCAASGRTFYGNVMGWYRQPPGKERELVATISFSAGSTYYADSVKGRFTISRDNAKNTVYLQMNSLKPEDTAVYYCNADHTDYATGGGNYWGQGTQVTVSS: low polyreactivity
- QVQLQESGGGLVQAGGSLRLSCAASGSIFVSVTMGWYRQAPGKERELVASIGRGSTTNHADSVKGRFTISRDNAKNIVYLLMNSLKPEDTEVYYCAALESYGKYHGYWGQGTQVTVSS: low polyreactivity
- QVQLVESGGGLVQAGGSLRLSSAASGRTLASYAIGWYRQAPGQESELVAAISKRGGGTYYADSVKGRFTISRDNAKNTVYLQMNSLKPEDTAVYYCAKGTGYKPVVTTHPMDYWGQGTQVTVSS: high polyreactivity
- QVQLVESGGGLVQAGGSLRLSCAASGSTFFYNAMGWYRQAPGKERELVAAISRGGGITYYADSVKGRFTISRDNAKNTVYLQMNSLKPEDTAVYYCQYLSRGLNTYRSSQGDDDYWGQGTQVTVSS: high polyreactivity

###

# test.summary: yeast display, Sf9 membrane polyspecificity reagent, FACS + sequencing; frameworks hold sequencing errors
readout.label: polyreactivity (PSR sort gate)

* QVQLVESGGGLVQAGGSLRLSCAASGRIFPSYAMGWYIQAPGKERELVAAITSSDSTYYADSVKGRFTISRDNAKNTVYLQMNSLKPEDTAVYYCAAAYSYSGWWWFGYWGQGTQVTVSS | high polyreactivity
* QVQLVESGGGLVQAGGSIRLSCAASGSTFRLYARGWYRQAPGKEREFVAAISFRGGSTYYADSVKGRFTISRDYSKNTVYLQMNSLKPEDTAVYYCNADYYYYYSWFNYWGQGTQVTVSS | high polyreactivity
* QVQHVESGGGLVQAGLSLRLSCAASGRIFYGYAMGWYRQGPGQEREFVAAITSGGRTYYADSVKGRFTISRDNAKTTVYLQLNSLKPEDTAVYYCAAAQYYRYGYWGQGTQVTVSS | high polyreactivity
* QDQLEESGGGLVQAGGSLRLSCAASGRTFFHYAMGWYRQAPGKERELVAGISSGGRTTYADSVKGRFTISRDNAKNTVYLQMISLKPEDTAVYYCAASYIVWLTRGAPRKRFDYWGQGTQVTVSS | high polyreactivity
* QVQLEESGGGLVQAGGSLRLSCAASGITFSDYAMGWYRQAPGKERELVAGISFTVGSTYYADSVKRPFTISRDNAKNTVYLQMNSLKPEDTAVYLCNADSFVDLDYWGQGTQVTVSS | low polyreactivity
* HVQLVESGGGLVEAGGSLRLSCAASGYISYVNAMGWYRQAPGKERELVATISIRGGRTYYADSVKGRFTISRDNAKNTVYLQMNSLKPEDTAVYYCNVRRAYYRRGPYYSTYYYWGQGTQVTVSS | high polyreactivity
* QVQLVESGGGLVQAGGSLRLSCAASGFIIKANAMGWYRQAPGKERELVASITFGGDSTYYADSVKGRFTISRDNAKNTVYLQMNSLKPEDTAVYYCNTRRRSYRTYYYWGQGTQVTVLS | low polyreactivity
* QVQLVESGGGLVQAGGSLRLSCAASGRIFTTYAMGWYRQAPGKERELVARISSGGTTYYADSVQGRFTISRDNAKNTVYLQMNSLKPEDTAVYYCNVRAVTPTRSRPFRYDYWGQGTQVTVSS | high polyreactivity
* QVQLVESGGGLVQAGGSLRLSCAASGSTINHYAMGWYRQAPGKERELVAAISWSGGSTRYADSVKGRFTISRDNAKNTVYLQMNSLKPEDTAVYYCAARGYGKYYYWGQGTQVTVSS | high polyreactivity
* QVQLVESGGGLVQAGGSLRLSCAASGRIFWEYAMGGYRQAPGKERELVAAITWRVGSTYYADSVKGRFTISRDYAKNTVYLQMNSLKPEDTAVFYCAAARYLSIYNYWGHGTQVTVSS | low polyreactivity
* QVQLVESGGGLVQAGGSLRLSCAPSGRTFYPNVMGWSRQAPGKERELVAAITSGGSTYYADSVKGRFTISRDNAKNTVYLQMNSLKPEDTAVYYCAVAYAGGGSRKYDYWGQGTQVTVSS | low polyreactivity
* QVQLVESGGGLVQAGGSLRLSCAASGITFSRYAMGWYRQAPGKERELVATITFSGTSTFYADSVKGRFTISRDNAKNRFYLQMNSLKPEDTAVYYCARLRFGSWSTYYYWGQGTQVTVSS | low polyreactivity
* QVQRVESGRGLVHAGGRLRLSCAASGSIFTYYPMGWSRPAPGKERELVAAISYSGGTTYYADSVKGRFTISRDNAKNTVYLQMNSLKPEDTAVYYCNVDADYESKWLSVGYDYWGQGTQVTVSS | low polyreactivity
* QVQLVESGGGLVQAGGSLRLSCAPSGSTFVRYAMGWYRQAPGKESELVAAISKSGVSTYYADSVKGRFTISRDNAKNTVNLQMNSLKPEDTAVYYCAAYARGVRRYRRYDYWGPGTQVTVSS | high polyreactivity
* QVQLVESGGGLVQAGGSLRLSCAASGFTFYAYAMGWYREAPGKERELVATIRRSTGSTYYADSVKGRFTISRDNAKNTVYLQMNSLKQQDTAVYYFATRVWFPITSYDYWGQGTQVTVSS | low polyreactivity
* QVHLVESGGGLVQAGGSLRLSCAASGSIFDVNAMGWYRQSPGKERELVASIDNSGTTNYADSVKGRFTISRDNAKNTVYLLMNSLKPEDTAVYYGAAEYESGDYWGQGTQVTVSS | low polyreactivity
* QVQLVESGAGLVQAGGILRLSCAASGRIFQYNAMGWYRQAPGKEREWVAAIRRGGGSTYYADSVKGRFTISRDNAKNTVYLQMNSLKPEDTAVYYCAARRKRVSFYPEYDYWGQGTQVTVSS | low polyreactivity
* QVQLVESGVGLVQAGGSLRLSCAASGRIFNDNAMGWYSQAPGKERELVAAISTGGSTNYADSVKWRFTISRDNAKNTVYLQMNSLKPEDTEVYYCAADHPVTYETSKFDYWGQGTQVTVSS | low polyreactivity
* QVQLVESGGGLVQAGRSLRLTCAASGRTFLANAMGWYRQAPGKEREFVAAIDWRTGSTYYADSVKGRFTISRDNAKNSVYLQRNSLNPEDTAVYYCAKDSSSYYYAHFYYWGQGTQVTVSS | high polyreactivity
* QVQLVESGGGLVQAGGSLRLSCAASGSIFTGYTMGWYRPAPGKEREFVAAIRATGGSTYYADSVKGRFTISRDNAKNTVYLQMNSLKPEDTAVYYCAVRSGVGSVRKRYGYWGQGTQVTVSS | high polyreactivity
* QVQLVESGGGLVQAGGSLRLSCAASGSIFYPYAMGWYRQAPGKERELVASITINDGSTYYADSVKGRFTISRDNAKNTVYLQMNSLKTEDTSVYYCNVEPVPGFGSEYEYWGQGTQVTVSS | low polyreactivity
